The measurements presented in this section are drawn from paper PMC6299220.

- assay_name: in vitro
- particulars: mouse, microsomes, MLM stability t1/2
# half-life per record follows
outcome_measure: half-life (min)

- CCC(=O)Nc1ccc2cnn(C)c2c1 [5c-1, N-(1-methyl-1H-indazol-6-yl)propionamide]: 1.29
- CCCCS(=O)(=O)Nc1ccc2cnn(CC)c2c1 [5a-3]: 1.29
- CCCCS(=O)(=O)Nc1ccc2cnn(-c3ccccc3)c2c1 [5a-6]: 0.505
- CCOC(=O)Nc1ccc2cnn(C)c2c1 [5d-1]: 1.16
- CCCCS(=O)(=O)Nc1ccc2cnn(CCC)c2c1 [5a-4]: 0.753
- CCCCC(=O)Nc1ccc2cnn(C)c2c1 [5c-2, N-(1-Methyl-1H-indazol-6-yl)pentanamide]: 0.668
- CCCCNC(=S)Nc1ccc2cnn(C)c2c1 [5b-1]: 1.17
- CCCCS(=O)(=O)Nc1ccc2cnn(C(C)C)c2c1 [5a-5]: 0.878
- CCCCS(=O)(=O)Nc1ccc2cnn(Cc3ccccc3)c2c1 [5a-7]: 2.88
